Assay: self-splicing fitness, log relative to wild type (ln ratio); higher = more splicing; Tetrahymena group I intron in knt gene, E. coli kanamycin selection, DiMSum; sequences stand for … in CUCUCU…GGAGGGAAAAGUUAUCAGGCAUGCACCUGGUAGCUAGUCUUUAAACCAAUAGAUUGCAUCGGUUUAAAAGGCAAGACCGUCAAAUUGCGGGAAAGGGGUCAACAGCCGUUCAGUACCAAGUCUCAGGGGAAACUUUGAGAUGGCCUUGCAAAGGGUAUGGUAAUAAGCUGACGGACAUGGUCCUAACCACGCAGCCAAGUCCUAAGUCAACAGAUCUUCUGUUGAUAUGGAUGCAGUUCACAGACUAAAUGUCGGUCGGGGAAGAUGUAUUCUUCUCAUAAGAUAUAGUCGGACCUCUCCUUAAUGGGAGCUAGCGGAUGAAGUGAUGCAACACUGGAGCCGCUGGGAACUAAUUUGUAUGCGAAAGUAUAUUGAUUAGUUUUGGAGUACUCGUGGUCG;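 further: selection with 25 µg/mL kanamycin versus none on LB agar overnight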
Details: 30 °C
The following sequences are shown together with reported self-splicing fitness (ln) values.
# output: bare number, no unit

[in] Which self-splicing fitness (ln) is listed for GGUAAGCAAUAUUACGACAA ?
[out] -0.393

Entry source: the supplement of paper PMC7877785
